Run Description: Phase I dose-escalation study, plasma pharmacokinetics;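 for Cmax: mean maximum plasma concentration Cmax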
Type: in vivo, human
Run Conditions: human, plasma, oral; 45 mg once daily, multiple doses, Cycle 1 Day 8

Smiles Input | Cmax (µM)
CC1(C)OCCn2c1nc1c(N3CCOCC3)nc(-c3cnc(N)nc3)nc12 | 0.544

###

Run Description: Phase I dose-escalation study, plasma pharmacokinetics
Assay type: in vivo, human
Run Conditions: human, plasma; single oral dose, all cohorts; read-out: median Tmax
Experimental: Plasma samples for pharmacokinetic (“PK”) analysis were collected on day 1 and day 8 or day 15 of cycle 1. Fluorodeoxyglucose positron emission tomography (“FDG-PET”) was performed at baseline and on-treatment. Dosing times may have been adjusted to accommodate for time shifts from the home administration schedule (e.g., for clinic visits with PK sampling or traveling), but times were to be adjusted by no more than 4 hours at a time. […]

Smiles Input | Tmax
CC1(C)OCCn2c1nc1c(N3CCOCC3)nc(-c3cnc(N)nc3)nc12 | ~2 h

###

Run Description: Phase I dose-escalation study, plasma pharmacokinetics
Type: in vivo, human
Run Conditions: human, plasma, oral; 2 mg once daily, multiple doses, Cycle 1 Day 15; read-out: Tmax (hr), Median

Molecule | Tmax
CC1(C)OCCn2c1nc1c(N3CCOCC3)nc(-c3cnc(N)nc3)nc12 [GDC-0084] | 2 h

###

Run Description: Phase I dose-escalation study, plasma pharmacokinetics
Assay type: in vivo, human
Run Conditions: human, plasma; 30 mg single oral dose, Cycle 1 Day 1; read-out: AUC0-24 (μM*hr), Mean

Smiles Input | AUC(0-t) / µM·h
CC1(C)OCCn2c1nc1c(N3CCOCC3)nc(-c3cnc(N)nc3)nc12 | 2.42

###

Run Description: Phase I dose-escalation study, plasma pharmacokinetics;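 for Cmax: mean maximum plasma concentration Cmax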
Format: in vivo, human
Run Conditions: human, plasma, oral; 2 mg once daily, multiple doses, Cycle 1 Day 15
Procedure: Plasma samples for pharmacokinetic (“PK”) analysis were collected on day 1 and day 8 or day 15 of cycle 1. Fluorodeoxyglucose positron emission tomography (“FDG-PET”) was performed at baseline and on-treatment. Dosing times may have been adjusted to accommodate for time shifts from the home administration schedule (e.g., for clinic visits with PK sampling or traveling), but times were to be adjusted by no more than 4 hours at a time. […]
Measurement Kind: Cmax

Smiles Input | Obs Value
CC1(C)OCCn2c1nc1c(N3CCOCC3)nc(-c3cnc(N)nc3)nc12 | 0.0331 µM

###

Run Description: Phase I dose-escalation study, plasma pharmacokinetics
Format: in vivo, human
Run Conditions: human, plasma, oral; 65 mg once daily, multiple doses, Cycle 1 Day 8; read-out: AUC0-24 (μM*hr), Mean
Measurement Kind: AUC(0-t) (µM·h)

Smiles Input | Measurement Kind | Obs Value
CC1(C)OCCn2c1nc1c(N3CCOCC3)nc(-c3cnc(N)nc3)nc12 | AUC(0-t) | 9.01

###

Run Description: Phase I dose-escalation study, plasma pharmacokinetics;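 for Cmax: mean maximum plasma concentration Cmax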
Type: in vivo, human
Run Conditions: human, plasma; 8 mg single oral dose, Cycle 1 Day 1

Compound | Cmax, µM
CC1(C)OCCn2c1nc1c(N3CCOCC3)nc(-c3cnc(N)nc3)nc12 [GDC-0084] | 0.0452

###

Run Description: Phase I dose-escalation study, plasma pharmacokinetics;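 for Cmax: mean maximum plasma concentration Cmax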
Format: in vivo, human
Run Conditions: human, plasma, oral; 15 mg once daily, multiple doses, Cycle 1 Day 15

Molecule | Output Unit | Cmax
CC1(C)OCCn2c1nc1c(N3CCOCC3)nc(-c3cnc(N)nc3)nc12 [GDC-0084] | µM | 0.156

###

Run Description: Phase I dose-escalation study, plasma pharmacokinetics
Type: in vivo, human
Run Conditions: human, plasma, oral; 15 mg once daily, multiple doses, Cycle 1 Day 15; read-out: AUC0-24 (μM*hr), Mean
Method: Plasma samples for pharmacokinetic (“PK”) analysis were collected on day 1 and day 8 or day 15 of cycle 1. Fluorodeoxyglucose positron emission tomography (“FDG-PET”) was performed at baseline and on-treatment. Dosing times may have been adjusted to accommodate for time shifts from the home administration schedule (e.g., for clinic visits with PK sampling or traveling), but times were to be adjusted by no more than 4 hours at a time. […]

Smiles Input | AUC(0-t)
CC1(C)OCCn2c1nc1c(N3CCOCC3)nc(-c3cnc(N)nc3)nc12 | 2.34 µM·h

###

Run Description: Plasma protein binding (PPB %)
Type: in vitro ADME
Run Conditions: dog
Measurement Kind: fraction unbound

Smiles Input | Obs Value
CC1(C)OCCn2c1nc1c(N3CCOCC3)nc(-c3cnc(N)nc3)nc12 | 0.34

###

Run Description: Phase I dose-escalation study, plasma pharmacokinetics
Format: in vivo, human
Run Conditions: human, plasma, oral, across Cohorts 1-6 (2 to 30 mg), single dose; read-out: apparent terminal phase t1/2 (converted)

Smiles Input | half-life
CC1(C)OCCn2c1nc1c(N3CCOCC3)nc(-c3cnc(N)nc3)nc12 | ~18.7 h

###

Run Description: Phase I dose-escalation study, plasma pharmacokinetics
Format: in vivo, human
Run Conditions: human, plasma; 20 mg single oral dose, Cycle 1 Day 1; read-out: AUC0-24 (μM*hr), Mean

Molecule | Output Unit | AUC(0-t)
CC1(C)OCCn2c1nc1c(N3CCOCC3)nc(-c3cnc(N)nc3)nc12 [GDC-0084] | µM·h | 1.9

###

Run Description: Phase I dose-escalation study, plasma pharmacokinetics
Assay type: in vivo, human
Run Conditions: human, plasma; 4 mg single oral dose, Cycle 1 Day 1; read-out: AUCinf (μM*hr), Mean

Smiles Input | AUC(0-inf)
CC1(C)OCCn2c1nc1c(N3CCOCC3)nc(-c3cnc(N)nc3)nc12 | 0.833 µM·h

###

Run Description: Phase I dose-escalation study, plasma pharmacokinetics
Type: in vivo, human
Run Conditions: human, plasma; 65 mg single oral dose, Cycle 1 Day 1; read-out: Tmax (hr), Median

Compound | Tmax (h)
CC1(C)OCCn2c1nc1c(N3CCOCC3)nc(-c3cnc(N)nc3)nc12 [GDC-0084] | 2.5

###

Run Description: Phase I dose-escalation study, plasma pharmacokinetics
Format: in vivo, human
Run Conditions: human, plasma, po, 2 mg, 2 mg single oral dose, Cycle 1 Day 1; read-out: T1/2 (hr), Mean (converted)

Smiles Input | Output Unit | half-life
CC1(C)OCCn2c1nc1c(N3CCOCC3)nc(-c3cnc(N)nc3)nc12 | h | 16.9

###

Run Description: Phase I dose-escalation study, plasma pharmacokinetics
Assay type: in vivo, human
Run Conditions: human, plasma, oral; 65 mg once daily, multiple doses, Cycle 1 Day 8; read-out: Tmax (hr), Median
Measurement Kind: Tmax (h)

Compound | Obs Value
CC1(C)OCCn2c1nc1c(N3CCOCC3)nc(-c3cnc(N)nc3)nc12 [GDC-0084] | 3

###

Run Description: Phase I dose-escalation study, plasma pharmacokinetics
Format: in vivo, human
Run Conditions: human, plasma, po, 20 mg, 20 mg single oral dose, Cycle 1 Day 1; read-out: T1/2 (hr), Mean (converted)

Compound | half-life (h)
CC1(C)OCCn2c1nc1c(N3CCOCC3)nc(-c3cnc(N)nc3)nc12 [GDC-0084] | 14.8

###

Run Description: Phase I dose-escalation study, plasma pharmacokinetics
Format: in vivo, human
Run Conditions: human, plasma, oral; 4 mg once daily, multiple doses, Cycle 1 Day 15; read-out: AUC0-24 (μM*hr), Mean

Smiles Input | AUC(0-t), µM·h
CC1(C)OCCn2c1nc1c(N3CCOCC3)nc(-c3cnc(N)nc3)nc12 | 0.833

###

Run Description: Plasma and brain concentrations in GS2 tumor-bearing mice
Format: in vivo
Run Conditions: mouse; 2 h post-dose, 15 mg/kg PO, non-tumored half of the brain; read-out: Brain

Smiles Input | concentration at 2 h (µM)
CC1(C)OCCn2c1nc1c(N3CCOCC3)nc(-c3cnc(N)nc3)nc12 | 5.51

###

Run Description: Phase I dose-escalation study, plasma pharmacokinetics
Type: in vivo, human
Run Conditions: human, plasma; 4 mg single oral dose, Cycle 1 Day 1; read-out: Tmax (hr), Median
Measurement Kind: Tmax (h)

Smiles Input | Measurement Kind | Output Unit | Obs Value
CC1(C)OCCn2c1nc1c(N3CCOCC3)nc(-c3cnc(N)nc3)nc12 | Tmax | h | 3

###

Run Description: Phase I dose-escalation study, plasma pharmacokinetics
Type: in vivo, human
Run Conditions: human, plasma; 8 mg single oral dose, Cycle 1 Day 1; read-out: AUC0-24 (μM*hr), Mean

Molecule | AUC(0-t), µM·h
CC1(C)OCCn2c1nc1c(N3CCOCC3)nc(-c3cnc(N)nc3)nc12 [GDC-0084] | 0.509

###

Run Description: Phase I dose-escalation study, plasma pharmacokinetics
Assay type: in vivo, human
Run Conditions: human, plasma, oral; 20 mg once daily, multiple doses, Cycle 1 Day 15; read-out: AUC0-24 (μM*hr), Mean
Measurement Kind: AUC(0-t) (µM·h)

Compound | Measurement Kind | Obs Value
CC1(C)OCCn2c1nc1c(N3CCOCC3)nc(-c3cnc(N)nc3)nc12 [GDC-0084] | AUC(0-t) | 2.87
